- Organism: Rattus norvegicus
- protocol-description: In vitro inhibitory concentration that relaxed KCL induced contraction in rat detrusor strip by 50%
- Type: functional
pIC50: −log10 of the molar value.
measurement-type: pIC50

* CC(C)/N=c1\c(O)c(O)\c1=N/Cc1ccc(C#N)cc1 | 4.85
* CCC(C)(C)/N=c1\c(O)c(O)\c1=N/Cc1ccc(F)cc1Cl | 5.82
* CCc1cc(C#N)ccc1C/N=c1\c(O)c(O)\c1=N/C(C)(C)C | 6.62
* CCC(C)(C)/N=c1\c(O)c(O)\c1=N/Cc1ccc(C#N)cc1Cl | 6.89
* Cc1cc(Br)cc(C)c1C/N=c1\c(O)c(O)\c1=N/C(C)(C)C | 6.54
* CCC(C)(C)/N=c1\c(O)c(O)\c1=N/Cc1cc(F)cc(F)c1 | 6.12
* CC(/N=c1/c(NC(=O)c2ccc(C#N)cc2)c(O)c1=O)C(C)(C)C (configuration not stated) | 4.94
* CC(C)(CO)/N=c1\c(O)c(O)\c1=N/Cc1ccc(C#N)cc1 | 4.67
* CN(c1c(NCc2ccc(C#N)cc2)c(=O)c1=O)C(C)(C)C | 4.74
* CCC(C)(C)/N=c1\c(O)c(O)\c1=N/Cc1c(C)cc(C#N)cc1Cl | 6.80
* CC[C@@H](C)/N=c1\c(O)c(O)\c1=N/Cc1ccc(C#N)cc1 | 5.40
* CC(/N=c1\c(O)c(O)\c1=N/Cc1ccc(Cl)cc1Cl)C(C)(C)C (configuration not stated) | 6.47
* Cc1cc(Cl)cc(Cl)c1C/N=c1\c(O)c(O)\c1=N/C(C)(C)C | 6.66
* CC(C)C/N=c1\c(O)c(O)\c1=N/Cc1ccc(C#N)cc1 | 4.99
* CC(C)(C)/N=c1\c(O)c(O)\c1=N/Cc1cccnc1 | 5.59
* CCc1cc(Br)ccc1C/N=c1\c(O)c(O)\c1=N/C(C)(C)C | 6.57
* CCC(C)(C)/N=c1\c(O)c(O)\c1=N/Cc1c(Cl)cccc1Cl | 6.55
* CC(C)(C)/N=c1\c(O)c(O)\c1=N/Cc1ccc(F)cc1F | 5.68
* CCC(C)(C)/N=c1\c(O)c(O)\c1=N/Cc1c(C)cc(C)cc1C | 6.51
